Molecular target: UniProt P50406
Sequence (P50406 whole entry): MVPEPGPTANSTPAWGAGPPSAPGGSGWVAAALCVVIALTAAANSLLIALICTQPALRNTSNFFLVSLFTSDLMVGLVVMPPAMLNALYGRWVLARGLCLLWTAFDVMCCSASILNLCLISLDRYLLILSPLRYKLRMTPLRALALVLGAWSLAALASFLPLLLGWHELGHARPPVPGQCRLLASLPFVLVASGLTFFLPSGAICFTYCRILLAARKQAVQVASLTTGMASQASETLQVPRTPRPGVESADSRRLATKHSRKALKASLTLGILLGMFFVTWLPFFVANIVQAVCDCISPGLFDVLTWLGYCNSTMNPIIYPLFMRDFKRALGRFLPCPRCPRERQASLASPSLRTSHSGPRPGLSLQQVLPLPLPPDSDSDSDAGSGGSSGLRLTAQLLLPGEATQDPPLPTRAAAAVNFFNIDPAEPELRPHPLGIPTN
Test: Antagonistic activity towards 5-HT6 receptors: inhibition of serotonin-induced intracellular cAMP (LANCE cAMP) in HEK 293 cells
Format: cell-based
Details: serotonin-stimulated intracellular cAMP production, read-out: IC50 in the setting of functional assay
pIC50: −log10 of the molar value.
# binarize pIC50: threshold 7 inclusive, high side Fulfilled, low side Not fulfilled

molecule | category
COc1ccc(S(=O)(=O)c2c(SC)nn3c(C)cc(C)nc23)cc1 [1.1(17)] | Not fulfilled
CCSc1nn2c(C)cc(C)nc2c1S(=O)(=O)c1ccccc1 [1.1(6)] | Fulfilled
CSc1nn2c(C)cc(C)nc2c1S(=O)(=O)c1ccccc1 [1.1(5)] | Fulfilled
CSc1nn2c(C)cc(C)nc2c1S(=O)(=O)c1cccc(Cl)c1 [1.1(11)] | Fulfilled
CSc1nn2c(C)cc(C)nc2c1S(=O)(=O)c1ccc(Cl)cc1 [1.1(16)] | Not fulfilled
